List of PBM binding z-score values.
Test system: PPARa:RXRa (NR concentration 270 nM, RXRa partner concentration 90 nM)
Assay: PBM binding z-score (relative to random genomic background probes); higher = stronger binding; sequences stand for … in GC…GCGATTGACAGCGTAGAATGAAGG

Sample answers from the record:
| sequence | PBM binding z-score |
| --- | --- |
| AATATAGGGTCACTAGGCCAGAGTAGGTACGAAT | 5.67 |
| ATATGTAGGTTACATCCGGGTCATTTAGGCTATG | 4.68 |
| ATCTCTAGGTAAAAGTTCAGGGAATCCCGAGGAT | 4.42 |

Fetch value of PBM binding z-score on PPARa:RXRa (NR concentration 270 nM, RXRa partner concentration 90 nM) for CATACAGGATCAGCTAGGCCAGAGTAGGGACGGC .
-0.466

Write down measured PBM binding z-score (PPARa:RXRa (NR concentration 270 nM, RXRa partner concentration 90 nM)) for this sequence. CCTCGGAGGACAGAAGGTCAGAGGTGTCCGCTTT
2.06

Fill: PBM binding z-score (PPARa:RXRa (NR concentration 270 nM, RXRa partner concentration 90 nM)) for this sequence AGTCAAAGTTCAGGGCGAGGTAACGTAAAGCACG
3.75

Answer briefly: PBM binding z-score recorded on PPARa:RXRa (NR concentration 270 nM, RXRa partner concentration 90 nM) for CAAACTAGGTCACCGAGGTCAAAGTCCGTGCGTA
6.56

Report measured PBM binding z-score on PPARa:RXRa (NR concentration 270 nM, RXRa partner concentration 90 nM); entry: CCTATTAGTTGACCAAAAGGGCAACCGAAGCTCG
1.5

Ref: the supplement of paper PMC6555819
